experiment: growth inhibition of DIPG glioma cells, dose response, cell-based, SU-DIPG-IV, MIPE4.0, CellTiter-Glo, qHTS (AID 1347063); details: SU-DIPG-IV viability, CellTiter-Glo ATP luminescence;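 note: compound exposure lasted 48 hours before the viability readout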
Records with an inconclusive call do not appear. The source made the active and inactive calls. No cut-off is given here; in the data, nearly all actives have AC50 up to about 30 µM.
Readout: AC50

>>> observed_measurement("N=c1c2c(-c3ccccc3)c(-c3ccccc3)n(Cc3ccccc3)c2ncn1C1CCC(O)CC1 (stereo not given)")
"8.33 µM (active)"
>>> observed_measurement("CN(C)CCc1ccc(O)cc1")
"inactive"
>>> observed_measurement("COc1ccc(C(=O)c2c(C)n(CCN3CCOCC3)c3cc(I)ccc23)cc1")
"20.9 µM (active)"
>>> observed_measurement("C[C@]12CC[C@H]3[C@@H](CCC4=CC(=O)CC[C@@]43C)[C@@H]1CC[C@@H]2O")
"inactive"
>>> observed_measurement("Cc1nc(-c2ccc(-c3ccc(C(=O)N4CCc5cc6c(cc54)C4(CCN(C)CC4)CO6)cc3)c(C)c2)no1")
"inactive"
>>> observed_measurement("CCC(=O)OC1CCC2C3CCC4=CC(=O)CC[C@@]4(C)C3CC[C@]12C (stereo not given in full)")
"inactive"
>>> observed_measurement("O=C(Oc1ccc([N+](=O)[O-])cc1)N1CCC(C(O)(c2ccc3c(c2)OCO3)c2ccc3c(c2)OCO3)CC1")
"inactive"
>>> observed_measurement("CC(C)(O)/C=C\\C(=O)[C@](C)(O)[C@H]1[C@H](O)C[C@]2(C)[C@@H]3CC=C4[C@@H](C=C(O)C(=O)C4(C)C)[C@]3(C)C(=O)C[C@@]12C")
"0.0296 µM (active)"
>>> observed_measurement("CC1=C(CC/C(C)=C/CCC2=CCC(C3=CC(=O)OC3O)OC2O)C(C)(C)CCC1 (stereo not given)")
"inactive"
>>> observed_measurement("C[C@]12CC[C@@H]3c4ccc(OC(=O)N(CCCl)CCCl)cc4CC[C@H]3[C@@H]1CC[C@@H]2OP(=O)(O)O")
"inactive"

###

Each entry below carries its recorded viability decrease (inhibition).
experiment: CellTiter-Glo luminescent readout of SW480 viability loss, NPC library primary (AID 1117343); conditions: CellTiter-Glo luminescence; at 20 µM (top of the series)
Readout: viability decrease (inhibition) (%)

>>> observed_measurement("C=CCOC(Cn1ccnc1)c1ccc(Cl)cc1Cl (configuration not stated)")
96.7
>>> observed_measurement("Clc1ccccc1N1CCNCC1")
19
>>> observed_measurement("CNC(=O)Oc1cccc2ccccc12")
114
>>> observed_measurement("S=C(SSC(=S)N1CCCCC1)N1CCCCC1")
13.2
>>> observed_measurement("Cc1ccc([N+](=O)[O-])[c]2c1[O][Hg]2")
134
>>> observed_measurement("CC(O)CN1CCN(CC(=O)[O-])CCN(CC(=O)[O-])CCN(CC(=O)[O-])CC1.[Gd+3] (configuration not stated)")
-1.9
>>> observed_measurement("C[C@]12Cc3nonc3C[C@@H]1CC[C@@H]1[C@@H]2CC[C@@]2(C)[C@H]1CC[C@]2(C)O")
118

###

assay: viability rescue of complex I mutant cybrids, primary screen, cell-based, galactose medium, ATP luminescence (AID 1645843); settings: complex I mutant cybrid cells, 72 h;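 note: positive z means more ATP and so rescue of galactose-driven cybrid death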
Activity calls are given as the source filed them.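 The calls were made as follows: active = z-score of at least 1.8 in each of two replicates, scored against plate mean and spread of sample wells; inactive = the rest.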
Outcomes: true (1) for active, false (0) for inactive

>>> answer_label("CCCN(CCC)[C@@H]1CCc2ccc(O)cc2C1")
"false (0)"
>>> answer_label("CC(C)[C@H]1CN[C@H](C(=O)O)[C@H]1CC(=O)O")
"false (0)"
>>> answer_label("CC[N+](CC)(CCCNC1=CC(=O)C(NCCC[N+](CC)(CC)Cc2ccccc2)=CC1=O)Cc1ccccc1")
"false (0)"
>>> answer_label("Ic1cncc(OC[C@@H]2CCN2)c1")
"false (0)"
>>> answer_label("CC12NC(Cc3ccccc31)c1ccccc12 (centres undefined)")
"false (0)"
>>> answer_label("NC1CC1c1ccccc1 (centres undefined)")
"false (0)"
>>> answer_label("c1ccc2c(c1)Nc1ccccc1S2")
"false (0)"
>>> answer_label("C/C(O)=C(\\C#N)C(=O)Nc1cc(Br)ccc1Br")
"true (1)"
>>> answer_label("NNC(=O)c1ccc(O)cc1")
"false (0)"
>>> answer_label("CCOC(=O)c1ncc2[nH]c3ccc(OCc4ccccc4)cc3c2c1COC")
"false (0)"
>>> answer_label("CN(C)CCN(C)CCc1ccc(Cl)c(Cl)c1")
"false (0)"
>>> answer_label("CCOC(=O)C1(c2ccccc2)CCN(CCC(C#N)(c2ccccc2)c2ccccc2)CC1")
"false (0)"
>>> answer_label("Cc1ccc(C(C)Nc2ncnc3sccc23)cn1 (centres undefined)")
"false (0)"
>>> answer_label("N#CC(=Cc1ccc(O)c(O)c1)C(N)=S")
"false (0)"
>>> answer_label("CN1C(=O)CN=C(c2ccccc2)c2cc([N+](=O)[O-])ccc21")
"false (0)"
>>> answer_label("O=C1C=CC(=O)C=C1")
"false (0)"
>>> answer_label("CC(=O)N(C)c1cccc(-c2ccnc3c(C(=O)c4cccs4)cnn23)c1")
"true (1)"
>>> answer_label("COc1cccc([C@@]2(O)CCCC[C@@H]2CN(C)C)c1")
"false (0)"
>>> answer_label("CCCN1CCC[C@H](c2cccc(O)c2)C1")
"false (0)"

###

test: sensitizers of A549 cells to miR-34 induction, primary screen, imaging, A549 dox-inducible miR-34, nuclei and caspase counts (AID 1347080); conditions: A549 miR-34 inducible, Hoechst nuclei count, 48 h; measured here: total cells with miR-34 induction; stronger effect = lower value
In this section, each of the molecules is paired with its reported cell count.
Readout: cell count

>>> observed_measurement("CC(C)(C)NCC(O)COc1cccc2[nH]c(C#N)cc12 (stereo not given)")
9030
>>> observed_measurement("O=c1n(Cl)c(=O)n(Cl)c(=O)n1Cl")
8670
>>> observed_measurement("CNc1ccc(C(=O)CC(O)CCC(C)C2OC(=O)CC(O)CC(=O)CC(O)CC(O)CC(O)CC(O)CC3(O)CC(O)C(C(=O)OC)C(CC(O[C@@H]4O[C@H](C)[C@@H](O)[C@H](N)[C@@H]4O)/C=C/C=C/C=C/C=C/C=C/C=C/C=C/C2C)O3)cc1 (stereo not given in full)")
11000
>>> observed_measurement("CCCCCc1cc(O)c2c(c1)OC(C)(C)[C@@H]1CCC(C(=O)O)=CC21 (stereo not given in full)")
5920
>>> observed_measurement("CC1=C(O)C(=O)[C@@H]2O[C@@H]2C1=O")
7990
>>> observed_measurement("NC=Nc1ccc2[nH]c3c(c2c1)C[C@@]1(O)C2Cc4ccc(O)c5c4[C@@]1(CCN2CC1CC1)[C@H]3O5")
9860
>>> observed_measurement("C[N+](C)(C)CC(=O)[O-]")
11400
>>> observed_measurement("CN=C1CN(O)C(c2ccccc2)=c2cc(Cl)ccc2=N1")
9820
>>> observed_measurement("CCNc1nc(Cl)nc(NC(C)C)n1")
8110
>>> observed_measurement("CCOC(=O)c1ncn2c1CN(C)C(=O)c1cc(N=[N+]=[N-])ccc1-2")
7930
>>> observed_measurement("C=C[C@H]1CN2CCC1C[C@H]2C(O)c1ccnc2ccccc12 (stereo not given in full)")
8540
>>> observed_measurement("C[C@]12CC[C@@H]3[C@@H](CC[C@@]45O[C@@H]4C(O)=C(C#N)C[C@]35C)[C@@H]1CCC2O (stereo not given in full)")
7740
>>> observed_measurement("CN1C2CCC1CC(OC(c1ccccc1)c1ccc(Cl)cc1)C2 (stereo not given)")
4530
>>> observed_measurement("Oc1ccc2c3c1O[C@H]1c4[nH]c5ccccc5c4C[C@@]4(O)C(C2)N(CC2CC2)CC[C@]314")
8920
>>> observed_measurement("NC(Cc1cc(O)c(O)cc1O)C(=O)O (stereo not given)")
9010
>>> observed_measurement("C[C@]12CCC(=O)C=C1C=CC1C2CC[C@@]2(C)C1CC[C@@]2(O)CCC(=O)O (stereo not given in full)")
12000
>>> observed_measurement("Cc1nnc2n1-c1ccc(Cl)cc1C(c1ccccc1)=NC2")
9000
>>> observed_measurement("CNCCc1cnc[nH]1")
9430
>>> observed_measurement("C[C@]12CC[C@H](O)CC1=CC[C@@H]1[C@@H]2CC[C@]2(C)C(=O)CC[C@@H]12")
8820
>>> observed_measurement("CCOc1cncc(/C=C/CCNC)c1")
8770

###

target: L-lactate dehydrogenase (Plasmodium falciparum (isolate CDC / Honduras)) (UniProt Q27743); assay: PfLDH activity inhibition – cell lysate, 3D7 strain, counter-screen for P. falciparum growth inhibition project (AID 2304);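 note: 0% = vehicle and 100% = reference inhibitor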; conditions: P. falciparum 3D7 crude extract, LDH APAD/NBT absorbance; at 2 µM; stronger effect = higher value
Sequence (Q27743 whole entry, looked up): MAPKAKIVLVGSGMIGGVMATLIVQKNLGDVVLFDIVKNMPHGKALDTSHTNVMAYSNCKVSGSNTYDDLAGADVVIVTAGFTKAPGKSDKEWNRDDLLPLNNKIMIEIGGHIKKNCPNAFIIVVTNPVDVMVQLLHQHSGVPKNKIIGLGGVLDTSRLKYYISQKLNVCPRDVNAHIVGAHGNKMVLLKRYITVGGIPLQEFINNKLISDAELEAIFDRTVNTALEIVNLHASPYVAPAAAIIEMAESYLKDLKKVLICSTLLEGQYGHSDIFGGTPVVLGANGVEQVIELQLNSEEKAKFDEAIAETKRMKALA
Consider the following compounds and their measured inhibition readings.
Readout: inhibition (%)

>>> observed_measurement("CC(=O)Nc1ccc(CN2CCC(N(C)c3cc(NC(=O)c4cccs4)ccn3)CC2)cc1")
2
>>> observed_measurement("CC[C@H]1CN2CC[C@H]1C[C@H]2[C@H](O)c1cc(-c2ccc(SC)cc2)nc2ccc(OC)cc12")
-1
>>> observed_measurement("CC[C@H]1CN2CC[C@H]1C[C@H]2[C@H](O)c1cc(N2CCCC2)nc2ccc(OC)cc12")
6
>>> observed_measurement("COc1ccc(CC(C)NCC(O)c2cccc(Br)c2)cc1 (stereo not given)")
-1
>>> observed_measurement("CN1CC=C(C=Cc2c[nH]c3ccccc23)CC1")
-1
>>> observed_measurement("O=C(/C=C/c1ccc(Cl)c(Cl)c1)NCC1CCC(CN2CCC(c3c[nH]c4ccccc34)CC2)CC1 (stereo not given)")
4
>>> observed_measurement("COC(=O)c1ccc(CC(C)NCC(O)c2cccc(I)c2)cc1 (stereo not given)")
-2
>>> observed_measurement("O=C(/C=C/c1ccc(Cl)c(Cl)c1)NC1CCC(N2CCC(c3c[nH]c4ccc(O)cc34)CC2)CC1 (stereo not given)")
-9
>>> observed_measurement("[O-]c1n[n+](C2CCCCC2)no1")
-5
>>> observed_measurement("COc1cc(CC(C)NCC(O)c2cccc(C(F)(F)F)c2)ccc1OCc1ccccc1 (stereo not given)")
2
